These data points were gathered from PubChem BioAssay (NCATS).

Assay: Cellular viability qHTS for adrenocortical cancer (ACC) cell line NCI-H295R (AID 1963990); note: nearly all actives have a fitted effect of over 60% in size
Conditions: CellTiter-Glo ATP luminescence, 48 h; series mostly up to 46.1 µM
Description: PI: Naris Nilubol, MD Surgical Oncology Program, National Cancer Institute (NCI) National Institute of Health (NIH), Bethesda, Maryland Adrenocortical cancer (ACC) is a rare malignancy with poor survival outcomes and few treatment options. Currently, mitotane is the only FDA-approved therapy for ACC. […] Through a quantitative high-throughput drug screen (qHTS), we identified auranofin (AF), a thioredoxin reductase (TXNRD) inhibitor, as a promising candidate drug. […]
Results filed as inconclusive are left out. The source made the active and inactive calls. Calls come from the whole dose curve; as a rule, active = well fitted cell-killing curve with a large enough effect; inconclusive = small, poorly fitted or top-dose-only effect; inactive = flat fitted curve, though single readings scatter. Where a SMILES comes first, the peptide text is derived from it. Bridges are numbered along the chain shown (N, C = ends). [ ]: non-standard residue; d: D form. hArg = N=C(N)NCCCC[C@H](N)C(=O)O; Mpa = O=C(O)CCS
Classes used: 1 = active, -1 = inactive

>>> category("CN1CCC[C@@H]1c1cccnc1")
-1
>>> category("Cc1cnc(NC(=O)Nc2cc(Br)c(C)cc2OC[C@@H]2CNCCO2)cn1")
1
>>> category("CC(=O)Oc1cc(C(C)C)c(OCCN(C)C)cc1C")
-1
>>> category("Cc1ccc(-c2ccccc2C#N)cc1")
-1
>>> category("CN(C)c1ccc2cc(C(=O)N[C@@H](CCCN=C(N)CCl)C(=O)NCc3ccccc3)ccc2c1")
-1
>>> category("O=C(CCl)Nc1cccc(NC2=NS(=O)(=O)c3ccccc32)c1")
1
>>> category("C#Cc1cccc(Nc2ncnc3cc4c(cc23)OCCOCCOCCO4)c1")
1
>>> category("Brc1ccccc1-c1ccccc1")
-1
>>> category("C#C[C@]1(O)CC[C@H]2[C@@H]3CCc4cc(OC)ccc4[C@H]3CC[C@@]21C")
-1
>>> category("COc1ccc(N2C(=O)N(c3c(C)cccc3Cl)Cc3cnc(Nc4ccc(C5CCN(C)CC5)cc4OC)nc32)nc1")
1
>>> category("Nc1nc(-c2ccccc2)c(Br)c(=O)[nH]1")
-1
>>> category("CC(N[C@H]1CCCC[C@H]1NC(=O)c1ccc(Cl)cc1)c1cccc2ccccc12 (stereo partly drawn)")
1
>>> category("O=C1NC(=O)/C(=C\\c2ccc(-c3ccc(F)cc3)o2)S1")
-1
>>> category("CC(=O)Oc1ccccc1C(=O)Nc1ncc([N+](=O)[O-])s1")
-1
>>> category("CN[C@H](CC(C)C)C(=O)N[C@H]1C(=O)N[C@@H](CC(N)=O)C(=O)N[C@H]2C(=O)N[C@H]3C(=O)N[C@H](C(=O)N[C@H](C(=O)O)c4cc(O)cc(O)c4-c4cc3ccc4O)[C@H](O)c3ccc(c(Cl)c3)Oc3cc2cc(c3O[C@@H]2O[C@H](CO)[C@@H](O)[C@H](O)[C@H]2O[C@H]2C[C@](C)(N)[C@H](O)[C@H](C)O2)Oc2ccc(cc2Cl)[C@H]1O")
-1
>>> category("CCn1cc(C(=O)O)c(=O)c2cc(F)c(N3CCNCC3)cc21")
-1
>>> category("Cc1cnc(NC(=O)c2cc(Oc3cnc(C(=O)N(C)C)nc3)c3cc(C)oc3c2)cn1")
-1
>>> category("COc1ccccc1C(=O)Nc1cc2c(cc1N1CCCCC1)n(C)c(=O)n2C")
-1
>>> category("Cc1c(F)c(N2CCNC(C)C2)cc2c1c(=O)c(C(=O)O)cn2C1CC1 (stereo not drawn)")
-1
>>> category("Nc1cccc2c(N)cccc12")
1
>>> category("NS(=O)(=O)OC[C@@H]1C[C@@H](n2ccc3c(N[C@H]4CCc5ccccc54)ncnc32)C[C@@H]1O")
1
>>> category("O=C(NC(Cc1cc(=O)[nH]c2ccccc12)C(=O)O)c1ccc(Cl)cc1 (stereo not drawn)")
-1
>>> category("CCC(=O)c1ccc2c(c1)N(CCCN(C)C)c1ccccc1S2")
1
>>> category("Cc1nc2n(c(=O)c1CCN1CCC(c3noc4cc(F)ccc34)CC1)CCC[C@H]2O")
-1
>>> category("CCCCC(CC)CNC(=O)CC(C)OC(=O)CCC(=O)O (stereo not drawn)")
-1
>>> category("C=CCN1C[C@H](C(=O)N(CCCN(C)C)C(=O)NCC)C[C@@H]2c3cccc4[nH]cc(c34)C[C@H]21")
-1
>>> category("CNNCc1ccc(C(=O)NC(C)C)cc1")
-1
>>> category("COC1CC(C(=O)c2ccc3c(N)ncc(-c4ccc(-c5cnn(C)c5)cc4)c3n2)C1 (stereo not drawn)")
-1
>>> category("COc1cc(F)ccc1-c1ncnc(Nc2cccc(CS(C)(=N)=O)c2)n1 (stereo not drawn)")
1
>>> category("OC1CCC(Oc2cccc3cnc(Nc4ccc5nc[nH]c5c4)nc23)CC1 (stereo not drawn)")
1
>>> category("C=C[C@H]1CN2CC[C@H]1C[C@H]2[C@H](O)c1ccnc2ccc(OC)cc12")
-1
>>> category("O=C(c1ccc(NS(=O)(=O)c2cccc3cccnc23)cc1)N1CCN(CC2CC2)CC1")
-1
>>> category("CC(C)c1cc(CNc2nc(Nc3cc(C4CC4)[nH]n3)cc(N3CCN(C)CC3)n2)on1")
1
>>> category("Cc1cc(=O)oc2cc(O[C@@H]3SC[C@@H](O)[C@H](O)[C@H]3O)ccc12")
-1
>>> category("NC(=O)[C@@H]1CSSCCC(=O)N[C@@H](CCCCN=C(N)N)C(=O)NCC(=O)N[C@@H](CC(=O)O)C(=O)N[C@@H](Cc2c[nH]c3ccccc23)C(=O)N2CCC[C@H]2C(=O)N1 ([Mpa][hArg]GDWPC-NH2; disulfide 1-7)")
-1
>>> category("Cn1c2cc(S(C)=O)sc2c2cnn(Cc3cccc(N)c3)c(=O)c21 (stereo not drawn)")
-1
>>> category("CC(=NNC(=O)c1cccc(S(=O)(=O)N2CCOCC2)c1)c1cc(Cl)ccc1O")
1
>>> category("CCNCc1nc2c(N)nc3ccccc3c2n1CC(C)(C)O")
-1

---

Test: Viability qHTS for spleen associated tyrosine kinase inhibitor (SYKi) naive MV4-11 cells (AID 1963823); note: nearly all actives have a fitted effect of over 40% in size; note: potency is the fitted concentration of half-maximal effect
Settings: MV4-11 AML viability, CellTiter-Glo luminescence, 72 h; series mostly up to 45 µM
Inconclusive results are not listed. The source made the active and inactive calls. Calls follow the shape of the dose curve; as a rule, active = well fitted cell-killing curve with a large enough effect; inconclusive = small, poorly fitted or top-dose-only effect, or effect the other way; inactive = no such curve, though single readings can be large or run the other way. Peptide text beside a SMILES is read from it.
ATTRIBUTE_MEASURED: Potency

>>> observed_result("CCOC(=O)C=C[C@H](C[C@@H]1CCNC1=O)NC(=O)[C@@H](CC(=O)[C@@H](NC(=O)c1cc(C)on1)C(C)C)Cc1ccc(F)cc1")
"inactive"
>>> observed_result("COc1cccc(CN(C(=O)CC(C)(C)C)[C@H]2C[C@H](C(=O)N3CCNCC3)N(Cc3ccc4c(c3)OCO4)C2)c1")
"18.4 µM (active)"
>>> observed_result("CN(C)c1ccc(-c2nc3ncc(Cl)c(N4CCN(CC(=O)Nc5nccs5)CC4)c3[nH]2)cc1")
"0.257 µM (active)"
>>> observed_result("C=CC(C)(CC/C=C(\\C)C(=O)OC)OC1OC(COC(=O)CC(C)(O)CC(=O)O)C(OC2OC(CO)C(O)C(O)C2O)C(O)C1O (centres undefined)")
"inactive"
>>> observed_result("COc1cc(NS(=O)(=O)c2ccc(N)cc2)nc(C)n1")
"inactive"
>>> observed_result("C[N+](C)(C)CCOC(=O)CCC(=O)OCC[N+](C)(C)C")
"inactive"
>>> observed_result("COc1cc2c(cc1OC)-c1cc(=Nc3c(C)cc(C)cc3C)n(C)c(=O)n1CC2")
"9.44 µM (active)"
>>> observed_result("O=C(c1ccc(Cl)c([N+](=O)[O-])c1)N1CCN(c2ccccc2F)CC1")
"23.1 µM (active)"
>>> observed_result("CC(O)C1NC(=O)C2CCCN2C1=O (centres undefined)")
"inactive"
>>> observed_result("CC(C)C[C@H](NC(=O)[C@@H]1O[C@H]1C(=O)O)C(=O)NCCCCN=C(N)N")
"inactive"
>>> observed_result("CCOc1ccc(NC(C)=O)cc1")
"inactive"
>>> observed_result("CC(=O)Oc1cccc(O)c1")
"inactive"
>>> observed_result("C[C@@H](c1ccccc1)N(C(N)=NC#N)c1cccc2ncccc12")
"inactive"
>>> observed_result("CN(C)CCN(Cc1ccccc1)c1ccccn1")
"inactive"
>>> observed_result("CCOc1ccc(CCNC(=O)c2cc3sc(Cl)cc3n2C)cc1OCC")
"inactive"
>>> observed_result("C[C@]1(CO)CN(c2cc(C(=O)Nc3ccc4c(c3)-c3c(c(C(N)=O)nn3-c3ccc(F)cc3)CC4)c(Cl)cn2)C[C@@]1(C)CO")
"3.66 µM (active)"
>>> observed_result("O=C(O)CP(=O)(O)O")
"inactive"
>>> observed_result("N#Cc1cc([N+](=O)[O-])c2sc(C(N)=O)[n+]([O-])c2c1")
"1.84 µM (active)"
>>> observed_result("Cc1cc(-c2nc(-c3ccc(OC(F)(F)F)cc3)no2)nn1Cc1ccnc(N2CCN(C3CC3)CC2)c1")
"inactive"
>>> observed_result("CC(C)(C)C(=O)OCOC(=O)C1N2C(=O)CC2S(=O)(=O)C1(C)C (centres undefined)")
"inactive"
>>> observed_result("CCC(C)C(=O)OC[C@H]1O[C@H](O[C@H]2O[C@H](CO)[C@@H](O)[C@H](O)[C@H]2O)[C@H](O)[C@@H](O)[C@@H]1O (some centres undefined)")
"inactive"
>>> observed_result("CC(C)=CCC[C@](C)(O[C@@H]1O[C@H](CO[C@@H]2O[C@@H](CO)[C@H](O)[C@H]2O)[C@@H](O)[C@H](O)[C@H]1O)[C@H]1CC[C@]2(C)[C@@H]1[C@H](O)C[C@@H]1[C@@]3(C)CC[C@H](O[C@@H]4O[C@H](CO)[C@@H](O)[C@H](O)[C@H]4O[C@@H]4O[C@H](CO)[C@@H](O)[C@H](O)[C@H]4O)C(C)(C)[C@@H]3CC[C@]12C")
"inactive"
>>> observed_result("COC(=O)[C@H](Cc1ccccc1)NC(=O)[C@@H](N)CC(=O)O (H-Asp-Phe-OMe)")
"inactive"
>>> observed_result("CC(C)[C@@H](c1ccc(C(F)(F)F)cc1CN(Cc1cc(C(F)(F)F)cc(C(F)(F)F)c1)c1nnn(C)n1)N1CCC(C(=O)O)CC1")
"16.4 µM (active)"
>>> observed_result("CN1C(=O)C(Cc2c[nH]c3ccccc23)NC1=S (centres undefined)")
"inactive"
>>> observed_result("C=C1C[C@]23C[C@H]1[C@@H](O)C[C@H]2[C@@]12C=C[C@H](O)[C@@](C)(C(=O)O1)[C@H]2[C@@H]3C(=O)O")
"inactive"
>>> observed_result("CC1(C)OC(=O)C(OCC2CC2)=C1c1ccc(S(C)(=O)=O)cc1")
"inactive"
>>> observed_result("C/C(=C\\CCC(C)C1CC(O)C2(C)C3CCC4C(C)(C)C(OC5OCC(O)C(O)C5O)CCC45CC35CC(O)C12C)C(=O)O (centres undefined)")
"inactive"
>>> observed_result("CCCCCN(CCCCC)C(=O)C(CCC(=O)O)NC(=O)c1ccc(Cl)c(Cl)c1 (centres undefined)")
"inactive"
>>> observed_result("CC(C)=CCC[C@](C)(O)[C@H]1CC[C@]2(C)[C@@H]1[C@H](O)CC1[C@@]3(C)CC[C@H](O)C(C)(C)[C@@H]3[C@@H](O[C@@H]3O[C@H](CO)[C@@H](O)[C@H](O)[C@H]3O[C@@H]3O[C@H](CO)[C@@H](O)[C@H](O)[C@H]3O)C[C@]12C (some centres undefined)")
"inactive"
>>> observed_result("C[N+]1(C)[C@@H]2C[C@@H](OC(=O)C(O)(c3cccs3)c3cccs3)C[C@H]1[C@@H]1O[C@@H]12")
"inactive"
>>> observed_result("C=C(C)C(=O)OC1CC2(C)OC(=CC2=O)C(=C)CC2OC(=O)C(COC)C12 (centres undefined)")
"1.61 µM (active)"
>>> observed_result("O=C(O)c1cc(-c2ccccc2)nc2ccccc12")
"inactive"
>>> observed_result("O=C(c1ccc(-c2ccc(Cl)cc2)o1)N(Cc1ccccn1)c1ccc(N2CCNCC2)cc1")
"13 µM (active)"
